This listing pairs molecules with measured AUC(0-t).
assay: Single dose oral pharmacokinetic study; type: in vivo; settings: mouse, mice, 30 mg/kg, plasma, read-out: Mice oral PK @30 mg/kg AUC 0-t
Kindly provide the numeric value in µg·h/mL only, without the unit symbol.

MOLECULE | AUC(0-t) [µg·h/mL]
C=C(C)[C@@H]1CC[C@]2(C(=O)N3CCC[C@H]3c3nnc(-c4ccccc4)[nH]3)CC[C@]3(C)[C@H](CC[C@@H]4[C@@]5(C)CC[C@H](OC(=O)CC(C)(C)C(=O)O)C(C)(C)[C@@H]5CC[C@]43C)[C@@H]12 [Compound 48] | 299

Turning now to a further molecule:
// query Please give the documented AUC(0-t) of C=C(C)[C@@H]1CC[C@]2(C(=O)N3CCC[C@H]3c3nc(C)c(C)[nH]3)CC[C@]3(C)[C@H](CC[C@@H]4[C@@]5(C)CC[C@H](OC(=O)[C@H]6C[C@@H](C(=O)O)C6(C)C)C(C)(C)[C@@H]5CC[C@]43C)[C@@H]12 [Compound 35]
// result 250

----------
test: Single dose oral pharmacokinetic study; format: in vivo; details: mouse, mice, 30 mg/kg, plasma, read-out: Mice oral PK @30 mg/kg Cmax
MEASUREMENT TYPE: Cmax (ng/mL)
Kindly provide the numeric value in ng/mL only, without the unit symbol.

Below are worked cases with known answers.
MOLECULE | UNIT OF MEASURE | Cmax
COCCO[C@@H]1C[C@@H](c2nc(-c3ccc(F)cc3)c[nH]2)N(C(=O)[C@]23CC[C@@H](C4(C)CC4)[C@@H]2[C@H]2CC[C@@H]4[C@@]5(C)CC[C@H](OC(=O)CC(C)(C)C(=O)O)C(C)(C)[C@@H]5CC[C@@]4(C)[C@]2(C)CC3)C1 [Compound 67] | ng/mL | 12300
C=C(C)[C@@H]1CC[C@]2(C(=O)N3CCC[C@H]3c3ncc(-c4ccccn4)[nH]3)CC[C@]3(C)[C@H](CC[C@@H]4[C@@]5(C)CC[C@H](OC(=O)CC(C)(C)C(=O)O)C(C)(C)[C@@H]5CC[C@]43C)[C@@H]12 [Compound 39] | ng/mL | 5690
CC(C)(C)c1c[nH]c([C@@H]2CCCN2C(=O)[C@]23CC[C@@H](C4(C)CC4)[C@@H]2[C@H]2CC[C@@H]4[C@@]5(C)CC[C@H](OC(=O)[C@H]6C[C@@H](C(=O)O)C6(C)C)C(C)(C)[C@@H]5CC[C@@]4(C)[C@]2(C)CC3)n1 [Compound 56] | ng/mL | 12000

Turning now to a further molecule:
// query Please give the documented Cmax of CC1([C@@H]2CC[C@]3(C(=O)N4CCC(c5ncc(-c6ccccc6)[nH]5)CC4)CC[C@]4(C)[C@H](CC[C@@H]5[C@@]6(C)CC[C@H](OC(=O)[C@H]7C[C@@H](C(=O)O)C7(C)C)C(C)(C)[C@@H]6CC[C@]54C)[C@@H]23)CC1 [Compound 57]
// result 2790

----------
test: Single dose oral pharmacokinetic study; assay type: in vivo; settings: mouse, mice, 30 mg/kg, plasma, read-out: Mice oral PK @30 mg/kg AUC 0-t
AUC(0-t) under 200 µg·h/mL gets t, anything at or over 200 µg·h/mL gets f.

The examples below pair each entry with its known result.
LINE NOTATION | DISCRETE LABEL
C=C(C)[C@@H]1CC[C@]2(C(=O)N3C[C@H](OCCOC)C[C@H]3c3nc(-c4ccc(F)cc4)c[nH]3)CC[C@]3(C)[C@H](CC[C@@H]4[C@@]5(C)CC[C@H](OC(=O)CC(C)(C)C(=O)O)C(C)(C)[C@@H]5CC[C@]43C)[C@@H]12 | f
C=C(C)[C@@H]1CC[C@]2(C(=O)N3CCC[C@H]3c3nc4ccccc4[nH]3)CC[C@]3(C)[C@H](CC[C@@H]4[C@@]5(C)CC[C@H](OC(=O)[C@H]6C[C@@H](C(=O)O)C6(C)C)C(C)(C)[C@@H]5CC[C@]43C)[C@@H]12 | f
C=C(C)[C@@H]1CC[C@]2(C(=O)N3CCC[C@H]3c3ncc(-c4ccc(Cl)cc4)[nH]3)CC[C@]3(C)[C@H](CC[C@@H]4[C@@]5(C)CC[C@H](OC(=O)[C@H]6C[C@@H](C(=O)O)C6(C)C)C(C)(C)[C@@H]5CC[C@]43C)[C@@H]12 | t
CC(C)(CC(=O)O[C@H]1CC[C@]2(C)[C@H]3CC[C@@H]4[C@H]5[C@H](C6(C)CC6)CC[C@]5(C(=O)N5CCC[C@H]5c5ncc(-c6ccccn6)[nH]5)CC[C@@]4(C)[C@]3(C)CC[C@H]2C1(C)C)C(=O)O | t
C=C(C)[C@@H]1CC[C@]2(C(=O)N3CCC[C@H]3c3ncc(-c4ccc(OC)cc4)[nH]3)CC[C@]3(C)[C@H](CC[C@@H]4[C@@]5(C)CC[C@H](OC(=O)CC(C)(C)C(=O)O)C(C)(C)[C@@H]5CC[C@]43C)[C@@H]12 | t
COCCO[C@@H]1C[C@@H](c2nc(-c3ccc(F)cc3)c[nH]2)N(C(=O)[C@]23CC[C@@H](C4(C)CC4)[C@@H]2[C@H]2CC[C@@H]4[C@@]5(C)CC[C@H](OC(=O)CC(C)(C)C(=O)O)C(C)(C)[C@@H]5CC[C@@]4(C)[C@]2(C)CC3)C1 | f

Here is the next item to consider.
// query For this molecule, is AUC(0-t) lower than 200 µg·h/mL? "C=C(C)[C@@H]1CC[C@]2(C(=O)N3CCC[C@H]3c3ncc(-c4ccc(C(F)(F)F)cc4)[nH]3)CC[C@]3(C)[C@H](CC[C@@H]4[C@@]5(C)CC[C@H](OC(=O)[C@H]6C[C@@H](C(=O)O)C6(C)C)C(C)(C)[C@@H]5CC[C@]43C)[C@@H]12"
// result t
